# Tested on: U2OS
# methodSummary: cells
# measurementConditions: Homo sapiens
# Description: Inhibition of autophagy in human U2OS cells assessed as BafA1-induced LC3B-II accumulation preincubated with compound for 3 hrs and followed by BafA1 induction and measured after 1.5 hrs by immunoblotting analysis
pEC50: −log10 of the molar value.
measure: pEC50

{"columns": ["smilesRecord", "quantitativeResult"],
 "data": [
  ["O=C(N[C@@H](C1CC1)C(F)(F)F)c1cc(-c2cnn3cc(-c4ccc(F)cc4)cnc23)cs1", 6.15]
]}

---

# targetEntity: MAP kinase-interacting serine/threonine-protein kinase 2 (Homo sapiens, UniProt Q9HBH9)
# Sequence (Q9HBH9 whole entry): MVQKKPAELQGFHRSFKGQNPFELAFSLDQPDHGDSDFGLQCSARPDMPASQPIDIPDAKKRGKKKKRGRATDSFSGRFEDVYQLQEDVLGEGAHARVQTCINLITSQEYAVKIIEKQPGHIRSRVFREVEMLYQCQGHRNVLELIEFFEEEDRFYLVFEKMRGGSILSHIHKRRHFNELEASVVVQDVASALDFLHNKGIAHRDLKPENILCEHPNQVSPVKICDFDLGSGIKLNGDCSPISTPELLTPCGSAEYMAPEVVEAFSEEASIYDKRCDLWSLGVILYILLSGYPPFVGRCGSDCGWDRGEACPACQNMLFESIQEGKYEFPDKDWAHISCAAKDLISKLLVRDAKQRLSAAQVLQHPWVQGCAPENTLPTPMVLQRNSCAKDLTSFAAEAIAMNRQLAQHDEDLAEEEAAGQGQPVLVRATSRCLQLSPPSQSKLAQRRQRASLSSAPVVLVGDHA
# methodSummary: Inhibition of human recombinant MNK2

{"columns": ["smilesRecord", "measurementUnit", "IC50"],
 "data": [
  ["O=C(N[C@@H](C1CC1)C(F)(F)F)c1cc(-c2cnn3cc(-c4ccc(F)cc4)cnc23)cs1", "nM", 22]
]}

---

# targetEntity: Serine/threonine-protein kinase 17A (Homo sapiens, UniProt Q9UEE5)
# Sequence (Q9UEE5 whole entry): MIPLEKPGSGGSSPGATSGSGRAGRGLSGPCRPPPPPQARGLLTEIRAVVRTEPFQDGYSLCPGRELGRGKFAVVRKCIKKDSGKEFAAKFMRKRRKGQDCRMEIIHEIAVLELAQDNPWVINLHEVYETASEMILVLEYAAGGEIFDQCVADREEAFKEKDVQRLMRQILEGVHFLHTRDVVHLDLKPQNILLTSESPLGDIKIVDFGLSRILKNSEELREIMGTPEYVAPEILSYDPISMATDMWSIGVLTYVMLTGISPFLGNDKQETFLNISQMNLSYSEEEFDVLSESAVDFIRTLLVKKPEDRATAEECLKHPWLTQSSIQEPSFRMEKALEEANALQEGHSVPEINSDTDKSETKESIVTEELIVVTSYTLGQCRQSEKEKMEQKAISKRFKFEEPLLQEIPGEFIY
# methodSummary: Inhibition of human recombinant DRAK1
measure: IC50 (nM)

{"columns": ["smilesRecord", "measure", "quantitativeResult"],
 "data": [
  ["O=C(N[C@@H](C1CC1)C(F)(F)F)c1cc(-c2cnn3cc(-c4ccc(F)cc4)cnc23)cs1", "IC50", 14]
]}

---

# targetEntity: Serine/threonine-protein kinase ULK1 (Homo sapiens, UniProt O75385)
# Sequence (O75385 whole entry): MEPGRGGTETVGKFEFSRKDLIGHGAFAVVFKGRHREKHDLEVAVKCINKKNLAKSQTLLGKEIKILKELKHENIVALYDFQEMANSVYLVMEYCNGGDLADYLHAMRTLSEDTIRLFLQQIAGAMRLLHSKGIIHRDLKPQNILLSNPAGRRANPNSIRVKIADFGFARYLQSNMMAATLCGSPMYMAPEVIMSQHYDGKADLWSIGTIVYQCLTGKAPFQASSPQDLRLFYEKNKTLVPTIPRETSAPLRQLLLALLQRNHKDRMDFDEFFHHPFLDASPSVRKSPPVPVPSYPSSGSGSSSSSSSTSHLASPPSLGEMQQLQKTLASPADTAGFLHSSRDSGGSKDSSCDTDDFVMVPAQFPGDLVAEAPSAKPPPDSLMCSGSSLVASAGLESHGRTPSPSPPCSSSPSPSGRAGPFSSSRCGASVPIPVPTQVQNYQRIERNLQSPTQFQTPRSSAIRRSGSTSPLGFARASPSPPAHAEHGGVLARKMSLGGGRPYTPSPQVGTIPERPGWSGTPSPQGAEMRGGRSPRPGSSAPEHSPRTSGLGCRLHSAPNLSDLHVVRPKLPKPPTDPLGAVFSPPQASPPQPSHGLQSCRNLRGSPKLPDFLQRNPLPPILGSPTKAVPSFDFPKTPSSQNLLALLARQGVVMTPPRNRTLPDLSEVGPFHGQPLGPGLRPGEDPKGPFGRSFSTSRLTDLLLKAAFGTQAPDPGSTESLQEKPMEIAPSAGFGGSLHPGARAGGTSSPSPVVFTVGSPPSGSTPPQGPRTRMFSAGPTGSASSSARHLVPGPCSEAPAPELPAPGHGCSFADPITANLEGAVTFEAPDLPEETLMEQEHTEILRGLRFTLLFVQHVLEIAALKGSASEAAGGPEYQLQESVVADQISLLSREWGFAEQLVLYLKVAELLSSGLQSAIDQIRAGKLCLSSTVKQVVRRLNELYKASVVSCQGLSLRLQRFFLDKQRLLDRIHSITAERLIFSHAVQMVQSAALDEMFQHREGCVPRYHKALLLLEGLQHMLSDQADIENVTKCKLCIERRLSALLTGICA
# methodSummary: Inhibition of ULK1 phosphorylation at Ser15 residue in HEK293 cells incubated for 1 hr by chemiluminescence based immunoblotting analysis

{"columns": ["smilesRecord", "measurementUnit", "EC50"],
 "data": [
  ["CC(C)[C@H](NC(=O)c1cc(-c2cnn3cc(-c4ccc(OCCN5CCCCC5)cc4)cnc23)cs1)C(F)(F)F", "nM", 83]
]}

Source: ChEMBL document CHEMBL5653631
